- Protocol details: Cycloheximide Counterscreen for Small Molecule Inhibitors of Shiga Toxin; further: read at 38.3 µM for the half of the compounds with a filed dose
- Particulars: cell reporter, cycloheximide protein synthesis inhibition counterscreen
Screen size: about 300,000 compounds; about 37,000 (12%) were called active. No stated cut-off is given here; in the data, active means max response mostly above about 13% (no sharp cut-off); inactive means mostly below about 14%. This excerpt belongs to a sample that is enriched for actives.
Outcome codes: active, inactive

{"Compound": "COc1ccc(Cl)cc1NC(=O)CCS(=O)(=O)c1ccc(Br)cc1", "Class name": "inactive"}
{"Compound": "O=C(/C=C/c1ccccc1[N+](=O)[O-])OC1CCCCC1=O (stereo not given)", "Class name": "inactive"}
{"Compound": "COc1ccccc1Oc1ccc(N/C=C2/CCCC2=O)cc1", "Class name": "active"}
{"Compound": "NS(=O)(=O)c1ccc(CCNc2nc(C(F)(F)F)nc3ccccc23)cc1", "Class name": "inactive"}
{"Compound": "CCCOc1cccc(C(=O)Nc2nnn(CCC)n2)c1", "Class name": "active"}
{"Compound": "C/C(=N\\NS(=O)(=O)c1ccc(Cl)cc1)c1ccc(NC(=O)c2ccco2)cc1", "Class name": "active"}
{"Compound": "COC(=O)c1cc(NC(=O)c2ccco2)ccc1N1CCOCC1", "Class name": "inactive"}
{"Compound": "COCc1nnc(NC(=O)CS(=O)(=O)Cc2ccccc2)s1", "Class name": "inactive"}
{"Compound": "O=C(Nc1ccc2c(c1)C(=O)OC2)Nc1cccc2ccccc12", "Class name": "inactive"}
{"Compound": "CC(C)OC(=O)CN1C(=O)c2ccccc2C1=O", "Class name": "inactive"}
{"Compound": "CC(O)c1cccc(NC(=O)Cc2cccc3ccccc23)c1 (stereo not given)", "Class name": "inactive"}
{"Compound": "Cc1c(CN2CC[C@@H](N3CCN(c4ccccn4)CC3)[C@H](O)C2)[nH]c2ccc(F)cc12", "Class name": "inactive"}
{"Compound": "O=C(Nc1ccc2oc(-c3ccc4ccccc4c3)nc2c1)c1cccs1", "Class name": "active"}
{"Compound": "CCOC(=O)c1ccc(NC(=O)CNC(=O)c2ccco2)cc1", "Class name": "inactive"}
{"Compound": "O=C(Nc1ccc(NC(=O)c2cccs2)cc1)c1ccc2ccccc2c1", "Class name": "inactive"}
{"Compound": "CCOc1ccc(OCC)c(NC(=O)CSc2nnc(Cn3cnc4ccccc43)n2C)c1", "Class name": "inactive"}
{"Compound": "CCN(CC(=O)NCc1cccs1)C(=O)c1cccc(S(=O)(=O)Nc2ccccc2OC)c1", "Class name": "inactive"}
{"Compound": "COc1ccc(C(C(=O)NC(C)(C)C)N(Cc2ccc(F)cc2)C(=O)CCC(=O)Nc2cc(C)on2)cc1 (stereo not given)", "Class name": "inactive"}
{"Compound": "CCOc1ccc(NC(=O)Nc2cc(C)ccc2OC)cc1", "Class name": "active"}
{"Compound": "CN1CCN(CC(=O)Nc2sc3c(c2C#N)CCC(C(C)(C)C)C3)CC1 (stereo not given)", "Class name": "inactive"}
{"Compound": "Cc1cc(NC(=O)c2cccc(N3C(=O)CCC3=O)c2)no1", "Class name": "inactive"}
{"Compound": "CC1CCCCC1NC(=O)/C(C#N)=C/C=C/c1ccccc1[N+](=O)[O-] (stereo not given)", "Class name": "active"}
{"Compound": "CCC1CCc2c(sc(NC(C)=O)c2C#N)C1 (stereo not given)", "Class name": "active"}
{"Compound": "Cc1ccc(CCNC(=O)c2ccc3nc4ccccc4c(=O)n3c2)cc1", "Class name": "inactive"}
{"Compound": "CCC1SC2=NCCN2C1(O)c1ccc(Cl)cc1 (stereo not given)", "Class name": "inactive"}
{"Compound": "O=C(O)c1ccccc1C(=O)NC1=NN(c2ccccc2)CC1", "Class name": "inactive"}
{"Compound": "O=C(CN1CCc2cc3c(cc2C1)OCCCO3)Nc1ccccc1", "Class name": "inactive"}
{"Compound": "COc1ccccc1Oc1ccc(S(=O)(=O)Nc2cccnc2)cc1", "Class name": "inactive"}
{"Compound": "Cc1ccc(S(=O)(=O)N2CCC(C)CC2)cc1C(=O)NCc1ccccn1", "Class name": "inactive"}
{"Compound": "Cc1cc(/C=C2/SC(=O)N(CC(=O)OC(C)C)C2=O)c(C)n1C", "Class name": "active"}
{"Compound": "O=C(Nc1ccccc1)c1ccc2c(c1)OCCCO2", "Class name": "active"}
{"Compound": "COc1ccc(NS(=O)(=O)c2ccc(Oc3c(C#N)cccc3C#N)cc2)cc1", "Class name": "inactive"}
{"Compound": "Cc1cc(NC(=O)CSCc2ccccc2C)no1", "Class name": "inactive"}
{"Compound": "CC(C)C(=O)Nc1cccc(C(=O)Nc2ccc3c(c2)OCO3)c1", "Class name": "active"}
{"Compound": "COc1ccccc1C(=O)N/C(=C/c1ccc2c(c1)OCO2)C(=O)Nc1cccc(C(=O)O)c1", "Class name": "inactive"}
{"Compound": "CCCn1nnc(NC(=O)COc2ccc(CC)cc2)n1", "Class name": "inactive"}
{"Compound": "CCC(=O)Nc1sc(C(=O)Nc2ccccc2)c(C)c1C(=O)OC", "Class name": "inactive"}
{"Compound": "O=C(CCc1nnc2ccc(NCc3ccccc3Cl)nn12)NCC1CCN(C2CCCC2)C1 (stereo not given)", "Class name": "inactive"}
{"Compound": "CN(CC#CCC(c1ccccc1)c1ccccc1)C(C)(C)C", "Class name": "inactive"}
{"Compound": "COc1ccccc1N1CCC(N2CCN(CC(C)(C)C)C(CCO)C2)CC1 (stereo not given)", "Class name": "inactive"}
{"Compound": "N=c1n(Cc2ccc(Cl)cc2)c2ccccc2n1CC(O)c1ccco1 (stereo not given)", "Class name": "inactive"}
{"Compound": "Cc1ccc(C(=O)Nc2sc(Cc3ccc4c(c3)OCO4)c(C)c2C(N)=O)cc1", "Class name": "inactive"}
{"Compound": "C/C(Cc1ccccc1)=N\\NC(=O)CNC(=O)c1ccc2c(c1)OCCO2", "Class name": "inactive"}
{"Compound": "COc1cc2c(cc1OC)C(C)N(S(=O)(=O)c1cnc(Cl)c(Cl)c1)CC2 (stereo not given)", "Class name": "inactive"}
{"Compound": "CCOc1ccc(C(=O)Nc2ccc(S(=O)(=O)Nc3cc(C)on3)cc2)cc1", "Class name": "inactive"}
